- System: NCI-H460 lung
ENDPOINT LABEL: GI50

Would you please look over these solved cases?
{"columns": ["COMPOUND", "GI50"],
 "data": [
  ["Clc1ccc(CN2COc3c(ccc4cccnc34)C2)cc1Cl", "532 nM"],
  ["Nc1ncc2ccc3c(ccn3C3CC(O)C(CO)O3)c2n1 (centres undefined)", "> 100000 nM"],
  ["Cn1ccnc1C(=O)/C=C/c1ccc(C(=O)Nc2ccccc2F)cc1", "1940 nM"]
]}

Which measured GI50 value corresponds to Cc1cc(C)c(S(=O)(=O)N2CCN(c3cc4c(cc3F)c(=O)c(C(=O)O)cn4C3CC3)CC2)c(C)c1 ? 3040 nM

###

- Test system: EKVX NSCLC
- METHOD: NCI tumour cell line growth inhibition, 48 h
Reported values of TGI for individual entries

{"columns": ["COMPOUND", "TGI"],
 "data": [
  ["Cc1nc2c(n1-c1ccc(Br)cc1)C(=O)c1ccccc1C2=O", "> 100 µM"],
  ["COC(=O)c1ccc([C@H]2c3[nH]c4ccccc4c3C[C@H](C(=O)OC)N2C(=O)CCl)cc1", "3.4 µM"],
  ["CC1(C)C(O)OC(O)C1(C)C (stereo not given)", "> 100 µM"]
]}

Which measured TGI value corresponds to Oc1cccc2cc(Cl)cnc12 ? 98.9 µM

Lookup C=CCNC(=O)NNC(O)(C(=O)OCC)C(F)(F)F (stereo not given) > 100 µM

Lookup COC(=O)/C(C#N)=C1\CCC(Nc2cccc(C(F)(F)F)c2)N1C (stereo not given) > 100 µM

Lookup CC1=C2[C@H]3OC(=O)[C@@H](C)[C@@H]3CC[C@@]2(C)C=CC1=O > 100 µM

Lookup O=S(=O)(N/N=C/c1c(Cl)cccc1Cl)c1ccccc1 > 100 µM

Lookup CCN1CC2(COC)C(O)CC(OC)C34C5CC6(O)C(OC)C=C(C5C6OC(=O)c5ccc(OC)c(OC)c5)C(C(OC)C23)C14 (stereo not given) > 7.5 µM

###

- Test system: SR leukemia
- METHOD: NCI tumour cell line growth inhibition, 48 h
Reported values of TGI for individual entries

Which measured TGI value corresponds to O=C1/C(=C/c2ccc(Cl)cc2)CCC/C1=C\c1ccc(O)c(CN2CCCCC2)c1 ? 9.67 µM

Lookup O=[N+]([O-])c1ccc(-c2nc(/C=N/N3CCCCC3)cs2)o1 73 µM

Lookup C=C(CC[C@@H](C)[C@H]1CC[C@H]2[C@@H]3C[C@@H](O)[C@H]4C[C@@H](O)CC[C@]4(CO)[C@H]3CC[C@]12C)C(C)C 9.77 µM

Lookup N#CC1Sc2ccccc2-n2cccc21 (stereo unspecified) > 100 µM

Lookup Clc1ccc(Cl)c(N=Nc2cc3c4c(c2)CCCN4CCC3)c1 > 10 µM

Lookup CC(O)C1(CNc2cc(Cl)nc(N)n2)CCCC1 (stereo unspecified) > 100 µM

Lookup COc1ccc(C(=O)/C=C/c2ccc(OCc3ccc(Cl)cc3)cc2)cc1OC > 1000 µM

Lookup CC(Cc1ccc(O)cc1)NCC(O)c1ccc(O)c(O)c1 (stereo unspecified) > 100 µM

Lookup NC(Cc1ccc(OCc2ccccc2)cn1)C(=O)OCc1ccccc1 (stereo unspecified) > 100 µM

Lookup Clc1ccc(CN2COc3c(ccc4cccnc34)C2)cc1Cl 1.41 µM

Lookup CC(C)=CCc1ccc2[nH]c3c(c2c1)C(=O)C(=O)C(C)=C3C(O)C(C)O (stereo unspecified) 12.4 µM

Lookup Cn1ncc(NCCn2cnc3c2c(=O)n(C)c(=O)n3C)c(Cl)c1=O > 100 µM

Lookup C=CCCCC(=O)CCC(=O)OCC1O[C@@H](O[C@@H]2C(O)[C@@H](OC(C)=O)C(C)O[C@H]2O[C@H](CC=C)CCCCC)C(O)[C@@H](OC(=O)/C(C)=C/C)[C@@H]1OC(=O)/C=C/c1ccccc1 (stereo partly specified) 1.83 µM

Lookup Cn1ccnc1C(=O)/C=C/c1ccc(C(=O)Nc2ccccc2F)cc1 2.34 µM

Lookup COc1ccc2c(c1)-c1c(c3cc(OC)ccc3n1CCN1CCOCC1)CC2 22 µM

Lookup COc1nc(NC2OCC(O)C(O)C2O)c(NC2OCC(O)C(O)C2O)c(=O)n1C (stereo unspecified) > 100 µM

###

- System: ACHN renal
- METHOD: NCI tumour cell line growth inhibition, 48 h; in the data active = GI50 below about 0.43 µM; inactive = the rest
Select the correct class. Options are Y (active), N (inactive) and nothing else.

Look over these answered cases.
{"columns": ["COMPOUND", "MEASURED ON", "GROUP"],
 "data": [
  ["N#CCCN1C/C(=C/c2ccccc2)C(=O)/C(=C/c2ccccc2)C1", "ACHN renal", "N"],
  ["COc1ccc2nc(NC(=O)COc3cc(/C=C\\c4cc(OC)c(OC)c(OC)c4)ccc3OC)sc2c1", "ACHN renal", "N"],
  ["CCC(=O)Oc1cc(/C=C/C(=O)O[C@H]2C[C@H]3CN4CCc5c([nH]c6cc(OC)ccc56)[C@@H]4C[C@@H]3[C@@H](C(=O)OC)[C@@H]2OC)ccc1OC", "ACHN renal", "N"],
  ["O=C(O)[C@@H]1CCCN1Cc1cc2cc3c(cc2c2cc(OCc4ccccc4)ccc12)OCO3", "ACHN renal", "N"],
  ["Cc1ccc2nc3ccccc3c(NCc3ccccc3)c2c1", "ACHN renal", "N"],
  ["CC(=O)O[C@H]1C(=O)[C@@]2(C)[C@H]([C@H](OC(=O)c3ccccc3)[C@]3(O)C[C@H](OC(=O)[C@H](O)[C@@H](NC(=O)c4ccoc4)c4ccccc4)C(C)=C1C3(C)C)[C@]1(OC(C)=O)CO[C@@H]1C[C@@H]2O", "ACHN renal", "Y"],
  ["COc1ccc2oc(=O)cc(C3c4ccc([nH]4)C(c4cc(=O)oc5ccc(OC)cc45)c4ccc([nH]4)C(c4cc(=O)oc5ccc(OC)cc45)c4ccc([nH]4)C(c4cc(=O)oc5ccc(OC)cc45)c4ccc3[nH]4)c2c1 (stereo unspecified)", "ACHN renal", "N"],
  ["O=c1c2sc3ccccc3c2nnn1-c1ccc(F)c(Cl)c1", "ACHN renal", "N"]
]}

Identify the outcome logged in this assay for the compound shown: Cc1cc(C)c(S(=O)(=O)N2CCN(c3cc4c(cc3F)c(=O)c(C(=O)O)cn4C3CC3)CC2)c(C)c1 N

Lookup CC12CC[C@@H]3c4cc5c(cc4CC[C@H]3[C@@H]1CCC2O)oc1cc(F)ccc15 (stereo partly specified) N

Lookup O=C(Nc1ccc(-n2ccc3c(NC(=O)c4ccccc4)nccc32)cc1)c1cccc(C(F)(F)F)c1 N

###

- Tested on: MOLT-4 leukemia
- METHOD: NCI tumour cell line growth inhibition, 48 h
ENDPOINT LABEL: TGI

Item Cn1ccnc1Cn1cc(-c2cccc(-c3cn[nH]c3)c2)cn1 with MOLT-4 leukemia - TGI? > 100 µM

Lookup N#Cc1cc(-c2nc3cc(F)ccc3s2)ccc1N > 100 µM

Lookup Cc1ccnc2[nH]c(-c3cccc4ccccc34)cc(=O)c12 > 100 µM

###

- System: DU-145 prostate
- METHOD: NCI tumour cell line growth inhibition, 48 h
ENDPOINT LABEL: TGI (µM)
Numbers only; they are read as µM.

{"columns": ["COMPOUND", "TGI [µM]"],
 "data": [
  ["O=P(Nc1ccccc1)(Oc1ccccc1)N1CCN(c2ccccc2)CC1 (stereo not drawn)", 49.4]
]}

Now consider a different compound.
Which measured TGI value corresponds to COC(O)C(=O)c1c2c(cc3c1CCC3)CCCC2 (stereo not drawn) ? 30.5

###

- Tested on: OVCAR-8 ovarian
- METHOD: NCI tumour cell line growth inhibition, 48 h
ENDPOINT LABEL: TGI

Would you please look over these solved cases?
{"columns": ["COMPOUND", "OBSERVED VALUE"],
 "data": [
  ["COc1cc2c3c(n(CCCNCCCNCCCn4c5c(c6cc(OC)c(OC)cc6c4=O)C(=O)c4ccccc4-5)c(=O)c2cc1OC)-c1ccccc1C3=O", "> 100 µM"],
  ["N#CCCN1C/C(=C/c2ccccc2)C(=O)/C(=C/c2ccccc2)C1", "6.03 µM"],
  ["O=C(Nc1ccc(Cl)cc1)Oc1ccc(C(=S)Nc2ccc(Br)cc2)cc1", "22.7 µM"],
  ["O=S(=O)(N/N=C/c1c(Cl)cccc1Cl)c1ccccc1", "> 100 µM"],
  ["CC(C)(C)OC(=O)CCC1NC(=O)[C@@H]2Cc3c([nH]c4ccccc34)C(C3CCCCC3)N2C1=O (stereo partly specified)", "> 100 µM"],
  ["CSC1(C)CC2C(CC1N1CCOCC1)C2(C)C (stereo unspecified)", "> 100 µM"],
  ["COc1cccc(NC(=O)c2c(SC)c(C#N)c(=O)n(N)c2N)c1", "> 100 µM"],
  ["C=C1C(=O)C2=C[C@H]1C[C@H](O)C(=O)[C@]1(C)CCCC(C)(C)[C@H]1C[C@H]2O", "5.93 µM"]
]}

Item O=C(Cc1nc2cccnc2nc1/C=C(\O)c1ccccc1)c1ccccc1 with OVCAR-8 ovarian - TGI? > 100 µM

Lookup C[Si](C)(C)CC(N)=O > 100 µM

Lookup COc1ccc2c(c1)-c1c(c3cc(OC)ccc3n1CCN1CCOCC1)CC2 > 100 µM

# credit: PubChem BioAssay (NCI)
